system tested: EZH2 Y641F (Homo sapiens (Human), UniProt Q15910, Y641F)
Sequence (Q15910 whole entry Y641F): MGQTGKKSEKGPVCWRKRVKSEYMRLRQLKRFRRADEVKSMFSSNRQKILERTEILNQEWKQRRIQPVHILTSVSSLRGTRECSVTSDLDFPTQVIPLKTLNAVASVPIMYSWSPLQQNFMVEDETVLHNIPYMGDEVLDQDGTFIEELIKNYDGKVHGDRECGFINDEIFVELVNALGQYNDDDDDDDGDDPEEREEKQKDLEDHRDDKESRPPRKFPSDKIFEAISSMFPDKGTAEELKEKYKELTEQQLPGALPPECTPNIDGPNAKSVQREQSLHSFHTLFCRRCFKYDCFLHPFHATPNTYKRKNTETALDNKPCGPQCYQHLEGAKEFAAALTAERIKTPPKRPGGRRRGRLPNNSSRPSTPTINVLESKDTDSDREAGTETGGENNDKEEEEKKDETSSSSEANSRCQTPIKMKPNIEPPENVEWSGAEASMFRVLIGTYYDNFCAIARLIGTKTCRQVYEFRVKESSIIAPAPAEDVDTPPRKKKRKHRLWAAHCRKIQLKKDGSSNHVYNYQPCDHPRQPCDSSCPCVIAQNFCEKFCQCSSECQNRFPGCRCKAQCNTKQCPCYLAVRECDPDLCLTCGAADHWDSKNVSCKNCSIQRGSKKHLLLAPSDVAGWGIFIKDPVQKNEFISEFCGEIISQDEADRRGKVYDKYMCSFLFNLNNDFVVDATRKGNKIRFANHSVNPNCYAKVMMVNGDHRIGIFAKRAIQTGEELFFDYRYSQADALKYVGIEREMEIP
Sequence (O75530 whole entry partner): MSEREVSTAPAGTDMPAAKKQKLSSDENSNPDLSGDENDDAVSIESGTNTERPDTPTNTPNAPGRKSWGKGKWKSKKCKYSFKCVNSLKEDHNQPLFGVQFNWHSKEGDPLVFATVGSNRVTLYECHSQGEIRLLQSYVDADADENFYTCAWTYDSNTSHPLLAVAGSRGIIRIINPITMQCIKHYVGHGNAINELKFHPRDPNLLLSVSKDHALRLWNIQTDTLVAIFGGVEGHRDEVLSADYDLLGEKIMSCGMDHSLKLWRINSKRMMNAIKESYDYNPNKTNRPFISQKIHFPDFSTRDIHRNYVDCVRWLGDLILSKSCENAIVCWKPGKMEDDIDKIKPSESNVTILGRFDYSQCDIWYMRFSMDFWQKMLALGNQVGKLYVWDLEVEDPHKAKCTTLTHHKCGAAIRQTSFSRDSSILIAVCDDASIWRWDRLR
Sequence (Q15022 whole entry partner): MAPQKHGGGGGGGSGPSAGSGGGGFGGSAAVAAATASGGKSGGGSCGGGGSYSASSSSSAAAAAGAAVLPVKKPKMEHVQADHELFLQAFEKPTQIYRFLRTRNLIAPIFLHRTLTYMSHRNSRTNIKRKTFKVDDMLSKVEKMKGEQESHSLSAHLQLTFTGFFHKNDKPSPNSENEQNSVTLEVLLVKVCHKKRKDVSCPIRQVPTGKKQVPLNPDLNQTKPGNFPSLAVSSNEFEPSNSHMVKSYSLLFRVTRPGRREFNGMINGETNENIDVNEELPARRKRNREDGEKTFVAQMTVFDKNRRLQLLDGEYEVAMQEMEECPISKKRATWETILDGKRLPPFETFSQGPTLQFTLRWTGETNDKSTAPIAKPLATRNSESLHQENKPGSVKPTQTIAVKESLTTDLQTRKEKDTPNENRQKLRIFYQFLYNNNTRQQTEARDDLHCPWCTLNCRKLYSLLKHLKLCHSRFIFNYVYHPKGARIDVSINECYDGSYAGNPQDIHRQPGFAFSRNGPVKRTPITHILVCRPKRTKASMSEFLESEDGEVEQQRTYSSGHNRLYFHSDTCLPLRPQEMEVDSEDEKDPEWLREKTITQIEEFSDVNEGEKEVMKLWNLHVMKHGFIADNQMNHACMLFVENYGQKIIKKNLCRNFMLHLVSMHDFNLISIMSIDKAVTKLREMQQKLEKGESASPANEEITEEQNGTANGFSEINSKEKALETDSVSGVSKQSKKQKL
Sequence (Q09028 whole entry partner): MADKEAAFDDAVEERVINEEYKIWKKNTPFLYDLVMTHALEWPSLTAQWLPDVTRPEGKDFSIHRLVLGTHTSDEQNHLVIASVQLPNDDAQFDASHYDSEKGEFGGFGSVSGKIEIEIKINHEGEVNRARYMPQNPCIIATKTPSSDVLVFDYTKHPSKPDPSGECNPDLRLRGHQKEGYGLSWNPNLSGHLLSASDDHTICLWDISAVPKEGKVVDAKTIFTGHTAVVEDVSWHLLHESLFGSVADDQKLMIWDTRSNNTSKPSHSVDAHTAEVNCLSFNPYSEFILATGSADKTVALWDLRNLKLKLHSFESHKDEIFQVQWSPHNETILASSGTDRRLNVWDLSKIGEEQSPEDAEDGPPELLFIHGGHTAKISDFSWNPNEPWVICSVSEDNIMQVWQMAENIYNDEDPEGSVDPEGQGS
Sequence (Q6ZN18 whole entry partner): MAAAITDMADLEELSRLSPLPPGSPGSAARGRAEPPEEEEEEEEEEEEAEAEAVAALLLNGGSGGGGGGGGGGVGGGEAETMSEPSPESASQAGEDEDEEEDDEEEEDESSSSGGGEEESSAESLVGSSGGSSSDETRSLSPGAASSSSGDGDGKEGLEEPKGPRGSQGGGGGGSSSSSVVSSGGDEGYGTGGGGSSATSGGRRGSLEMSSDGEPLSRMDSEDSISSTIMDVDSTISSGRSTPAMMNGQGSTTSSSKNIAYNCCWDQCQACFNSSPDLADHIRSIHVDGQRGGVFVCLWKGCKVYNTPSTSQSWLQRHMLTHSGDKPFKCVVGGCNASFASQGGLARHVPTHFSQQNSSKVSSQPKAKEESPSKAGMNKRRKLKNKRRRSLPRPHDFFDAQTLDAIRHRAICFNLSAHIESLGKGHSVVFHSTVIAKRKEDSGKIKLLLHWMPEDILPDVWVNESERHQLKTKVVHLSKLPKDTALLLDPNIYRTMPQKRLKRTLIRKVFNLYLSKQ
method summary: In vitro methyltransferase activity test (LANCE Ultra)
condition parameters: Recombinant PRC2 (EZH2-Y641F), 2.5 μM SAM/250 nM H3(1-50)K27me1, 3 hours, room temperature
quantity kind: IC50 (nM)

C=CCC1(S(=O)(=O)n2cc(C)c3c(C(=O)NCc4c(C)cc(C)[nH]c4=O)cc(-c4ccc(CN(C)C)cc4F)cc32)CC1 [Compound G-15] ... 25
C=CCC1(S(=O)(=O)n2cc(C)c3c(C(=O)NCc4c(C)cc(C)[nH]c4=O)cc(-c4ccc(N5CCN(C(C)C)CC5)nc4)cc32)CC1 [Compound G-48] ... 28
C=CCC1(S(=O)(=O)n2cc(C)c3c(C(=O)NCc4c(C)cc(C)[nH]c4=O)cc(-c4ccc(CN(C)C)cc4)cc32)CC1 [Compound G-4] ... 22

P: C=CCC1(S(=O)(=O)n2cc(OC)c3c(C(=O)NCc4c(C)cc(C)[nH]c4=O)cc(-c4ccc(N5CCN(C)CC5)nc4)cc32)CC1 [Compound G-14]
Q: C=CCC1(S(=O)(=O)n2cc(C)c3c(C(=O)NCc4c(C)cc(C)[nH]c4=O)cc(-c4ccc(CN(C)C)c(F)c4)cc32)CC1 [Compound G-16]
Hello, I am sorting some records. Could you say if P or Q has the smaller IC50 value? I would appreciate it if you answered with the label of your choice. P

Source listed as patent US10793549B2.
